Target or system: T1, Aca1 Y48A (Pseudomonas aeruginosa phage JBD30, UniProt L7P845 1-79, Y48A)
T1 sequence: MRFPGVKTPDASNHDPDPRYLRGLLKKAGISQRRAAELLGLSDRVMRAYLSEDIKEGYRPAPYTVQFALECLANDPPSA
Protocol: ITC
Observed property: pKd
API: returns pKd as number; meaning -log10 of concentration in mol/L.

The value of pKd measured for the binder 21-bp IR2 (dsDNA) DNA 1: ATTAGGCACAATGTGCCTAAT DNA 2: ATTAGGCACATTGTGCCTAAT turned out to be 5.54

The measured values listed here are drawn from paper PMC8633003.
